Attribution: the supplement of paper PMC9732359

- Assay overview: protein stability index of a GFP-peptide fusion (yeast GPS) (PSI 1-4); higher = more stable; sorted into four equal gates, so the index is relative within each strain
- Reported conditions: ubr1∆
Reported property: protein stability index
Just the number, please, no unit after it.

Example entries begin here.
ASFNDTFVHVTDLSGKE [RPS14A] : 1.15
RAGGAAASLIMPFLDNQ [PRE7] : 1.11
LELIGVLSINPDMYERK [MED7] : 2.73
NTHLGARNVQVHQEPYV [RPS0A] : 2.11
ESSINTHPHAADGSSYM [SKI6] : 3.05

The sequence listed as YGIFGEGVEYSFLHVDD [POP8] shows protein stability index equal to 2.71

The sequence listed as QRETMKERKLRENIAML [SMC1] shows protein stability index equal to 3.42

The sequence listed as LRWFELKPKLYYEQFRP [SIR3] shows protein stability index equal to 3

###

- Assay overview: protein stability index of a GFP-peptide fusion (yeast GPS) (PSI 1-4); higher = more stable; sorted into four equal gates, so the index is relative within each strain
- Reported conditions: ubr1∆
Reported property: protein stability index

Example entries begin here.
LASAIASGLLRAYLSHS [CSN12] : 1.4
PRDLLRVIIQELRFPSP [PRP28] : 1.72
YELEFDTPTSGKHNLTI [BRR2] : 3.23

The sequence listed as NDFFPGEVVYLRKQKDS [ITC1] shows protein stability index equal to 1.48

The sequence listed as QESFVPNSERSGTPTLK [YOR098C/NUP1] shows protein stability index equal to 1.79

The sequence listed as FPRDGKAPEAEQVLSAA [RPL13B] shows protein stability index equal to 3

The sequence listed as NLATKGMVKLNEYPVAD [REC8] shows protein stability index equal to 1.57

The sequence listed as MFTATMTPVIEKIAAGY [PRP28] shows protein stability index equal to 2.35

The sequence listed as IMNMIENVEKKEAALKT [SMC2] shows protein stability index equal to 1.69

The sequence listed as NTLRKCYPQFAERDSQG [UBP6] shows protein stability index equal to 2.78

###

Overview of recorded protein stability index for various sequences
- Assay overview: protein stability index of a GFP-peptide fusion (yeast GPS) (PSI 1-4); higher = more stable; sorted into four equal gates, so the index is relative within each strain
- Reported conditions: pdr5∆

Example entries begin here.
ELTDEYLAENPDPNFEN [PRP8] : 3.16
ISLEALNFYITNVPKAK [SIR3] : 2.82

The sequence listed as KQLNSLRRSGQIANDPS [SMD1] shows protein stability index equal to 3.02

The sequence listed as PDGVVVHRDDPALVGKL [SNF6] shows protein stability index equal to 3.49

The sequence listed as ESKLIPQENDLESKMSE [SMC3] shows protein stability index equal to 3.05

The sequence listed as ITMPATNGKPDMAILER [ARP7] shows protein stability index equal to 3.08

The sequence listed as AAQIFGSYNAFEPASRL [COR1] shows protein stability index equal to 1.55

The sequence listed as ERKTLERQQENLLIQRL [SWI3] shows protein stability index equal to 3.28

The sequence listed as QCCEFMTMLTPNYLHLV [YML103C/NUP188] shows protein stability index equal to 1.77

The sequence listed as PLSQDELISLRKILESS [YIL149C/MLP2] shows protein stability index equal to 2.67

The sequence listed as MPGGYFHSEISPDSTVN [YAR002W/NUP60] shows protein stability index equal to 3

The sequence listed as KEISARRYKLLTATPNS [POP1] shows protein stability index equal to 2.45

The sequence listed as QLVIQQGTGKKTASLGN [ISW2] shows protein stability index equal to 2.83

The sequence listed as RFYQLGVDLKLKYSKRR [CSN12] shows protein stability index equal to 1.16
